I'd appreciate it if you could supply GI50 values for the items below.
- System: U-251
- Procedure text: NCI tumour cell line growth inhibition, 48 h
Calls of active or inactive are those of the source. No stated cut-off is given here; in the data, active = GI50 up to about 1.1 µM and inactive = higher.

# annotated cases, reported GI50 shown
- Compound: "O=C1CSC(c2c(O)ccc3ccccc23)N1n1c(S)nnc(/C=C/c2c(O)ccc3ccccc23)c1=O (stereo not drawn)"
  GI50: "1.33 µM (inactive)"
- Compound: "CCOC(=O)C1=C(C)N(NC(N)=O)C2(N)N(NC(N)=O)C(C)=C(C(=O)OCC)C12C(=O)OCC (stereo not drawn)"
  GI50: "> 100 µM (inactive)"
- Compound: "CCCCCCCCCC/C=C/CC(=O)SCCNC(=O)CCNC(=O)[C@@H](O)C(C)(C)COP(=O)(O)OP(=O)(O)OCC1OC(n2cnc3c(N)ncnc32)C(O)C1OP(=O)(O)O (stereo partly drawn)"
  GI50: "> 10 µM (inactive)"

Below are 3 compounds. Give each one its GI50.
1. CC(C)C12C=CC(C)(CC1)n1c(=O)c3cc4ccccc4cc3c(=O)n12 (stereo not drawn)
2. Cc1cc(NS(=O)(=O)c2ccc(NC(=O)c3ccc(Cl)c4c(Nc5ccc(S(N)(=O)=O)cc5)c5ccccc5nc34)cc2)no1
3. Fc1ccc(C(=C2CCN(CCc3ccc4[nH]c(=S)[nH]c4c3)CC2)c2ccc(F)cc2)cc1

(A)
1: 76 µM (inactive); 2: 11.5 µM (inactive); 3: 4.48 µM (inactive)

Below are 2 compounds. Give each one its GI50.
1. CCCCCCc1cc2cc(-c3cn4ccsc4n3)c(=O)oc2cc1O
2. CC(=O)c1sc2c(c1O)c(=O)n(-c1ccccc1)c(=S)n2-c1ccccc1

(A)
1: 45.6 µM (inactive); 2: > 100 µM (inactive)
